assay: Cytotoxicity by WST-8 assay, C3H10T1/2; type: cell-based, murine; details: mouse, C3H10T1/2 cells, Table 3, 48 hours
metric: IC50 at 48 h
Kindly write the number and append the unit.

IC50 at 48 h reported for this compound c1ccc(CN(Cc2ccccn2)Cc2ccccn2)nc1 : 5.7 µM

----------
test: Cytotoxicity by WST-8 assay, HEK293T; assay type: cell-based; settings: human, HEK293T cells, 1st measurement
metric: IC50 at 48 h (nM)
A number alone suffices; assume nM.

For c1ccc(CN(CCN(Cc2ccccn2)Cc2ccccn2)Cc2ccccn2)nc1 [L7, reference compound] the compound record lists IC50 at 48 h as 1990

The compound c1ccc(CN(Cc2ccccn2)Cc2ccccn2)nc1 [L6, Tris(2-pyridylmethyl)amine] showed IC50 at 48 h equal to 5080

Value of measured IC50 at 48 h for the entry Nc1cc2cccnc2c2ncccc12 [L3, (1,10)-Phenanthrolin-5-amine] : 490

----------
assay: Cytotoxicity by WST-8 assay, NIH3T3; format: cell-based; settings: mouse, NIH3T3 cells, NIH3T3, 48 hours, 2nd measurement
metric: IC50 at 48 h (µM)
Response body: numeric value in µM, unit text excluded.

Note to self: IC50 at 48 h recorded for c1ccc(CN(Cc2ccccn2)Cc2ccccn2)nc1 was 1.95

Reported IC50 at 48 h ( c1ccc(CN(CCN(Cc2ccccn2)Cc2ccccn2)Cc2ccccn2)nc1 [L7, reference compound] ) = 1.79

----------
assay: Cytotoxicity by WST-8 assay, HL60; format: cell-based, human; details: human, HL60 cells, Table 3, 48 hours
metric: IC50 at 48 h (nM)
The reply should be a number in nM, with the unit left off.

// IC50 at 48 h lookup, compound = c1ccc(CN(Cc2ccccn2)Cc2ccccn2)nc1 , result: 1800

----------
Please provide measured IC50 for the entries that follow.
System: HL60 (human promyelocytic leukemia cells)
Assay: Cytotoxicity by WST-8 assay, HL60
Assay type: cell-based
Conditions: Table 3, 48 hours
Experimental: Subsequently, the following cell types: HL60 (human promyelocytic leukemia cells), HeLa (human cervical cancer cells), C3H10T1/2 (murine multipotential mesenchymal cells), and HEK293 (human embryonic kidney 293 cells); were treated with metal complexes M-L6 (M=Zn, Fe, Cu, Co, Ni, and Mn) for 48 hours, and then subjected to WST-8 assay to perform evaluation of the cytotoxicity of each kind of metal complex.
Please give a number only; it is taken to be in µM.

Short answer on HL60 (human promyelocytic leukemia cells) for O=S(=O)([O-])[O-].[Ni+2].c1ccc(CN(Cc2ccccn2)Cc2ccccn2)nc1 , IC50: 16

Item O=S(=O)([O-])[O-].[Cu+2].c1ccc(CN(Cc2ccccn2)Cc2ccccn2)nc1 was tested on HL60 (human promyelocytic leukemia cells); the reported IC50 is 5

Readout IC50 for O=S(=O)([O-])[O-].[Co+2].c1ccc(CN(Cc2ccccn2)Cc2ccccn2)nc1 , test system HL60 (human promyelocytic leukemia cells), was 6.6

The recorded IC50 with HL60 (human promyelocytic leukemia cells) for O=S(=O)([O-])[O-].[Fe+2].c1ccc(CN(Cc2ccccn2)Cc2ccccn2)nc1 was 4.8

Form field, IC50 with HL60 (human promyelocytic leukemia cells), item O=S(=O)([O-])[O-].[Mn+2].c1ccc(CN(Cc2ccccn2)Cc2ccccn2)nc1 : 1.5

----------
Kindly state IC50 at 48 h for each of the entries shown.
assay: Cytotoxicity by WST-8 assay, 3Y1; type: cell-based; details: rat, 3Y1 cells, 3Y1, 48 hours, 1st measurement
Answer in nM, number only, no unit symbol.

Form: molecule = c1ccc(CN(CCN(Cc2ccccn2)Cc2ccccn2)Cc2ccccn2)nc1 [L7, reference compound] ; IC50 at 48 h = 5110

Looking up c1ccc(CN(Cc2ccccn2)Cc2ccccn2)nc1 , I found its IC50 at 48 h recorded as 2420

Lab book: IC50 at 48 h of Nc1cc2cccnc2c2ncccc12 noted as 730
